Each entry below carries its recorded activation.
Target: Melanocortin receptor 4 (Homo sapiens) (UniProt P32245)
Sequence (P32245 whole entry, looked up): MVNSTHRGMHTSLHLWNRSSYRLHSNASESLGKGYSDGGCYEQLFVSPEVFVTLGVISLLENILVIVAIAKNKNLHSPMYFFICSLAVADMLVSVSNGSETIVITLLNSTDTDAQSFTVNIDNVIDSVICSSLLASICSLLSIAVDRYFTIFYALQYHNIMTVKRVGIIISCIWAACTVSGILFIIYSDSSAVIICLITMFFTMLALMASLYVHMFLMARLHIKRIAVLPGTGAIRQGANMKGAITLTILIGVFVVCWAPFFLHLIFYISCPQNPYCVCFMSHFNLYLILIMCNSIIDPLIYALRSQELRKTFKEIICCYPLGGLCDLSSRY
Assay: activators of MC4R beta-arrestin recruitment – cell-based, luminescence, agonist arm of biased-ligand search, primary screen (AID 540308)
Conditions: U2OS MC4R beta-arrestin complementation, at 8.9 µM, stronger effect = higher value, percent of melanotan II response, DMSO zero
About 3,500 (0.97%) of roughly 360,000 compounds were called active. Only a selection was taken, and actives are over-represented in it overall.
ENDPOINT: activation (%)

# COMPOUND, ENDPOINT, READOUT UNITS, MEASURED VALUE
rows = [
    ("CCOC(=O)c1ccc(-c2ccc3ncnc(N(C)Cc4sccc4C)c3c2)o1", "activation", "%", 1.6),
    ("CCCNC(=O)C1(C)CCCN(C(=O)c2oc3ccccc3c2C)C1 (configuration not stated)", "activation", "%", -0.51),
    ("CCN(CC)c1ccc(C(=O)N/N=C/c2ccc(N3CCOCC3)cc2)cc1", "activation", "%", 26.7),
    ("COc1c(Cl)cc(C(=O)Nc2ccc(Cl)cn2)cc1Cl", "activation", "%", 10.6),
    ("Cc1ccccc1N/N=C/c1ccc(N2CCOCC2)cc1", "activation", "%", -1.27),
    ("CCOC(=O)C1(C)CCCN(C(=O)c2ccc(F)c(Cl)c2)C1 (configuration not stated)", "activation", "%", -0.39),
    ("CCOC(=O)C1=C(CN2CCc3ccccc32)NC(=O)NC1c1ccc(Cl)cc1 (configuration not stated)", "activation", "%", 6.41),
    ("Cc1cccc(NC(=S)Nc2ccc(Cl)c(Cl)c2)c1", "activation", "%", 8.62),
    ("CC(=O)Nc1cc(-c2ccc(N3CCN(C)CC3)cc2)cn2c(-c3ccc(F)cc3)cnc12", "activation", "%", 0.23),
    ("CCNC(=O)C1CCCN(C(=O)c2cc(F)ccc2C)CC1 (configuration not stated)", "activation", "%", 1.6),
    ("CCCCCC(O)c1cccc(OCc2ccc3ccccc3n2)c1 (configuration not stated)", "activation", "%", 8.01),
    ("O=C(Nc1ccc(Cl)cn1)c1ccc2c(c1)OCCO2", "activation", "%", 0.85),
    ("COc1cccc(-c2cnc3c(NC(C)=O)cc(-c4cccc(NC(C)=O)c4)cn23)c1", "activation", "%", 7.42),
    ("Cc1cc(OCc2cc(C(=O)NCc3cc(C(C)C)no3)no2)cc(C)c1Cl", "activation", "%", 10),
    ("CCCc1cc(C(=O)Nc2ccc(Cl)cn2)cs1", "activation", "%", 3.75),
    ("COc1cccc(-c2cnc3c(NC(C)=O)cc(-c4cc(F)ccc4OC)cn23)c1", "activation", "%", 29.8),
    ("C/C(=N\\OCC(=O)Nc1ccc(Br)cc1)c1cccs1", "activation", "%", -4.16),
    ("CC(=O)c1ccc(N2CCN(C(=O)CCNC(=O)Cn3ccc4ccccc4c3=O)CC2)cc1", "activation", "%", 2.35),
    ("CCN(CC)c1ccc(/C=N/NC(=O)CNC(=O)c2cccs2)cc1", "activation", "%", -1.48),
    ("CCc1nc2ccc(C(=O)NCCNC(C)=O)cn2c1N(CC)Cc1cccc(Br)c1", "activation", "%", -0.75),
    ("Cc1cccnc1CC(C)NC(=O)c1cc(COc2cncc(Cl)c2)on1 (configuration not stated)", "activation", "%", 0.62),
    ("COc1cccc(CN2CCC(C(=O)NC(c3ccc4c(c3)OCO4)c3ccccn3)CC2)c1 (configuration not stated)", "activation", "%", -1.26),
]
